Reference source for all entries: ChEMBL document CHEMBL5338822

biological target: UniProt:P21453; test: Inhibition of human S1P1 expressed in human HeLa cells incubated for 20 mins by FLIPR assay; assay type: cell-based
VALUE_TYPE: IC50 (nM)
The response must be a number in nM with no trailing unit.

Data point: `Cc1cc(-c2cccc(NCc3ccc(Cl)c(Cl)c3)c2)ccc1C(=O)N[C@@H](C)C(=O)O` ; IC50 = 170

====

molecular target: Sphingosine 1-phosphate receptor 1 (Homo sapiens, UniProt P21453); experiment: Antagonist activity at human S1P1 transfected in CHO cells incubated for 120 mins by [gamma-35S]GTP binding assay; type: functional, cell-based
Sequence (P21453 whole entry): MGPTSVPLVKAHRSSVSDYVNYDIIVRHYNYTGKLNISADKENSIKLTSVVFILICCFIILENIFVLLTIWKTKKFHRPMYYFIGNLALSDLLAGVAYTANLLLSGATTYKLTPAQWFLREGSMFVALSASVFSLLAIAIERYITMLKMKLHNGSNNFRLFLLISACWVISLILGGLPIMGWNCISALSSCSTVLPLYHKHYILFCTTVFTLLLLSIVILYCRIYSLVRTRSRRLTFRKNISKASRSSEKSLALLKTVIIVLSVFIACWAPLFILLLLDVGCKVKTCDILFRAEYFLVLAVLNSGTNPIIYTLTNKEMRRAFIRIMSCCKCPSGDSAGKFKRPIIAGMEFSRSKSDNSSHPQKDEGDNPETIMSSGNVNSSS
VALUE_TYPE: IC50 (µM)
API: value field is a number in µM; no unit string.

IC50 in this record for `Cc1cc(-c2cccc(NCc3ccc(Cl)c(Cl)c3)c2)ccc1C(=O)N[C@@H](C)C(=O)O` : 4.27
